Tested on: F1*sub RNA substrate (template-directed ligation)
EXPERIMENT DESCRIPTION: fraction ligated after 30 min (ligated reads / total reads); higher = more ligase activity; sequences stand for … in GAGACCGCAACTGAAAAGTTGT…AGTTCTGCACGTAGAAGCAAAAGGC
CONDITION NOTES: 42 °C
Assign class by fraction ligated: not lower than 0.1 means yes; lower than 0.1 means no.

Please review the following examples before continuing.
TATCATTGTCGTAAGACACTTGGATGGGTTG [3d1275] :: yes
TATCACTGTCGTAAGAACTTTGGATGGTTGA [3d1423] :: yes
TTCACTTGTCGTAAGACACTTTGGATGGGTTGA [1d2] :: yes

Is reported fraction ligated greater than or equal to 0.1 here: TCACTTGTCGTAAGACCTTTGGATGGGTTGA [3d15] yes

Is reported fraction ligated greater than or equal to 0.1 here: TATCCTTTCTAAGACACTTTGGATGGGTTGA [3d969] yes

Is reported fraction ligated greater than or equal to 0.1 here: TATCACTTGTGTAAGACCTTTGATGGGTTGA [3d1773] yes

Is reported fraction ligated greater than or equal to 0.1 here: TACACTTGTCGTAAGACCTTTGGAGGGTTGA [3d703] no

Is reported fraction ligated greater than or equal to 0.1 here: TATCCTTGTCGTAAACACTTTGGTGGGTTGA [3d1060] no

Is reported fraction ligated greater than or equal to 0.1 here: TATCATTGTGTAAGACACTTTGGATGGTTGA [3d1184] no

Is reported fraction ligated greater than or equal to 0.1 here: TATCACTTGTTAAGACACTTTGGAGGGTTGA [3d1714] yes

Is reported fraction ligated greater than or equal to 0.1 here: TCACTTGTCGAAGACACTTTGGATGGGTTGA [3d10] yes

Is reported fraction ligated greater than or equal to 0.1 here: TATACTTGTCGTAAGACACTTGGATGGGTTGA [2d83] yes

Is reported fraction ligated greater than or equal to 0.1 here: TATCACTTGCGTAAGACCTTTGGTGGGTTGA [3d1669] yes

Attribution: the supplement of paper PMC6755084
